Where these numbers come from: ChEMBL document CHEMBL4138082

Each entry below lists one item and its recorded IC50 value.
- Tested on: L02
- EXPERIMENTAL PROTOCOL: Cytotoxicity against human L02 cells assessed as reduction in cell viability after 72 hrs by MTT assay
- Type: cell-based
- TEST CONTEXT: L02, 72 h

Example entries begin here.
C[C@H]1CCC/C=C/[C@@H]2C[C@H](OC(=O)CCCC(=O)OCCCOc3no[n+]([O-])c3S(=O)(=O)c3ccccc3)C[C@H]2[C@H](O)/C=C/C(=O)O1 :: 6.7 µM
C[C@H]1CCC/C=C/[C@@H]2C[C@H](OC(=O)CCCC(=O)OCCOc3no[n+]([O-])c3S(=O)(=O)c3ccccc3)C[C@H]2[C@H](OC(=O)CCCC(=O)OCCOc2no[n+]([O-])c2S(=O)(=O)c2ccccc2)/C=C/C(=O)O1 :: 6 µM
C[C@H]1CCC/C=C/[C@@H]2C[C@H](O)C[C@H]2[C@H](OC(=O)c2ccccc2C(=O)OCCOc2no[n+]([O-])c2S(=O)(=O)c2ccccc2)/C=C/C(=O)O1 :: 5.7 µM

# input Query the reported IC50 for L02; item: `O=C(O)CCC(=O)OCCCOc1no[n+]([O-])c1S(=O)(=O)c1ccccc1`
# output 29 µM

# input Field entry: `C[C@H]1CCC/C=C/[C@@H]2C[C@H](O)C[C@H]2[C@H](OC(=O)c2ccccc2C(=O)OCCCOc2no[n+]([O-])c2S(=O)(=O)c2ccccc2)/C=C/C(=O)O1`
# output 5.9 µM

# input Field entry: `O=C(O)CCCC(=O)OCCCOc1no[n+]([O-])c1S(=O)(=O)c1ccccc1`
# output 35 µM

# input Field entry: `C[C@H]1CCC/C=C/[C@@H]2C[C@H](OC(=O)c3ccccc3C(=O)OCCCOc3no[n+]([O-])c3S(=O)(=O)c3ccccc3)C[C@H]2[C@H](O)/C=C/C(=O)O1`
# output 5.4 µM

# input Field entry: `C[C@H]1CCC/C=C/[C@@H]2C[C@H](OC(=O)c3ccccc3C(=O)OCCOc3no[n+]([O-])c3S(=O)(=O)c3ccccc3)C[C@H]2[C@H](OC(=O)c2ccccc2C(=O)OCCOc2no[n+]([O-])c2S(=O)(=O)c2ccccc2)/C=C/C(=O)O1`
# output 6.2 µM

# input Field entry: `C[C@H]1CCC/C=C/[C@@H]2C[C@H](O)C[C@H]2[C@H](OC(=O)CCC(=O)OCCOc2no[n+]([O-])c2S(=O)(=O)c2ccccc2)/C=C/C(=O)O1`
# output 5 µM
